Reference source for all entries: the supplement of paper PMC5752671

Test system: MOLM/16
measurement-notes: area under dose-response curve (cell viability) (AUC (arbitrary, % viability x log concentration)); higher = less sensitive (more viable)
assay-context: 4 days
Where a name gives a salt, the structure may show the parent alone.
Assign condition met to entries whose area under dose-response curve meets or exceeds 200; assign condition not met to the rest.

• COCC[n+]1c2c(n(Cc3cnccn3)c1C)C(=O)c1ccccc1C2=O [YM-155] = condition met
• COc1ccc(-c2ccc3ncc4c(c3c2)n(-c2ccc(N3CCNCC3)c(C(F)(F)F)c2)c(=O)n4C)cn1 [BGT-226] = condition met
• CC(=O)O[C@H]1C(=O)[C@@]2(C)[C@H]([C@H](OC(=O)c3ccccc3)[C@]3(O)C[C@H](OC(=O)[C@H](O)[C@@H](NC(=O)c4ccccc4)c4ccccc4)C(C)=C1C3(C)C)[C@]1(OC(C)=O)CO[C@@H]1C[C@@H]2O [Paclitaxel] = condition not met
• CC[C@@]1(O)C(=O)OCc2c1cc1n(c2=O)Cc2cc3c(CN(C)C)c(O)ccc3nc2-1 [Topotecan HCl] = condition met
• CC[C@H](Nc1ncnc2[nH]cnc12)c1nc2cccc(F)c2c(=O)n1-c1ccccc1 [CAL-101] = condition met
• Cc1[nH]c2ccccc2c1CCNCc1ccc(/C=C/C(=O)NO)cc1 [Panobinostat] = condition met
